Target sequence: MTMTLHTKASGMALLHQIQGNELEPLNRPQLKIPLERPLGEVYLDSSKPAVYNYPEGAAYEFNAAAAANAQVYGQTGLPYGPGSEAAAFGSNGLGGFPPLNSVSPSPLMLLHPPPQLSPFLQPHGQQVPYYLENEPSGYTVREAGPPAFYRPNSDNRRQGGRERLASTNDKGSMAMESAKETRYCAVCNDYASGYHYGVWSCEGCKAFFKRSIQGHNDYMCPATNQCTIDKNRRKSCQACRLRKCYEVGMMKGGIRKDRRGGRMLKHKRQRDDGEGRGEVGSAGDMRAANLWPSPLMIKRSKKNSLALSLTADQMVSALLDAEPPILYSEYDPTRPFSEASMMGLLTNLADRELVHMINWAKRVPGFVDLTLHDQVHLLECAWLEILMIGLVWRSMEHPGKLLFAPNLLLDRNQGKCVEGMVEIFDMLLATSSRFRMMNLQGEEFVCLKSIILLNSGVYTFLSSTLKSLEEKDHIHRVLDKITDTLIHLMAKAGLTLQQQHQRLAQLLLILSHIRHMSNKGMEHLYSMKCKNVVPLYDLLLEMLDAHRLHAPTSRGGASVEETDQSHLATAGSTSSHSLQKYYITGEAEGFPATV
Study the reported Ki values for the protein given by its sequence given below; they originate from different publications.

molecule: C[C@@]1(C(=O)Nc2nccs2)CC2c3ccccc3C1c1ccccc12
systemUnderTest: the protein given by its sequence
Ki [nM]: 15000
//
molecule: C#C[C@]1(O)CC[C@H]2[C@@H]3CCC4=CC(=O)CCC4=C3[C@@H](c3ccc(N(C)CCOC4CC[C@@]5(C)[C@@H](C4)C[C@@H](O)[C@@H]4[C@@H]5C[C@H](O)[C@]5(C)[C@@H]([C@H](C)CCC(=O)O)CC[C@@H]45)cc3)C[C@@]21C (stereo in doubt; form 1)
systemUnderTest: the protein given by its sequence
Ki [nM]: 11
//
molecule: COC(=O)C(CC1(C)CC2CCC1CC2C(C)(C)CCNC(=O)CCC(C)C)NC(=O)OCc1ccccc1 (configuration not stated)
systemUnderTest: the protein given by its sequence
Ki [nM]: 38000
//
molecule: O=C(O)/C=C/c1ccc(C(=C2C3CC4CC(C3)CC2C4)c2ccc(O)cc2)cc1
systemUnderTest: the protein given by its sequence
Ki [nM]: 0.4
//
molecule: C[C@@]12CCc3c(sc4cc(O)ccc34)[C@H]1CC[C@H]2O
systemUnderTest: the protein given by its sequence
Ki [nM]: 13
//
molecule: CN(CCCc1ccc(C#N)cc1)c1nc(NCCc2ccc(O)cc2)nc(N2CCNCC2)n1
systemUnderTest: the protein given by its sequence
Ki [nM]: 570
//
molecule: Oc1ccc2c(c1)CCC(c1ccccc1)N2Cc1ccc(OCCN2CCCCC2)cc1 (configuration not stated)
systemUnderTest: the protein given by its sequence
Ki [nM]: 1.7
